- Tested on: zebrafish embryos
- ASSAY_INFO: Phenotypic screen for edema and survival in zebrafish larvae at 72 hpf
- EXPERIMENTAL_SETUP: number of larvae (of 36); 3 μM from 2 hpf, scored at 72 hpf
MEASUREMENT_TYPE: Dead
Kindly provide the number alone.

// known answers, use as guide
O=C(CCCSc1ccc(Cl)cc1)NO    14
O=C(CCCSc1ccc(Br)cc1)NO    0
O=C(O)CCCNc1ccccc1    0
COC(=O)CCCSc1ccc(OC)cc1    1
COC(=O)CCCSc1ccccc1    8

# compound O=C(CCCCCN1C(=O)c2cccc3cccc(c23)C1=O)NO [Scriptaid, reference compound] ; its Dead = 0

What the record says about `COC(=O)CCCSc1ccc(F)cc1` : Dead is 36

In plain terms, Cn1cc(C(=O)Cc2ccccc2)cc1/C=C/C(=O)NO [APHA compound 8, reference compound] has a documented Dead of 0

Lab book: Dead of O=C(O)CCCS(=O)(=O)c1ccccc1 [PSOBA, 4-(phenylsulfonyl)butanoic acid, reference compound] noted as 0

Notebook: CC(/C=C/C(=O)NO)=C\[C@@H](C)C(=O)c1ccc(N(C)C)cc1 [TSA, trichostatin A, reference compound] , Dead read as 36

Just so you know, measured Dead for O=C(O)CCCCc1ccccc1 [5-phenylpentanoic acid, reference compound] came out at 0

Reported Dead of Nc1ccccc1NC(=O)c1ccc(CNC(=O)OCc2cccnc2)cc1 [MS-275, reference compound] : 0

Short answer for CCCOC(=O)CCCSc1ccccc1 [UPHD-00024, propyl 4-(phenylsulfanyl)butanoate] : Dead was 6

====

- System: zebrafish embryos
- ASSAY_INFO: Phenotypic screen for edema and survival in zebrafish larvae at 72 hpf
- EXPERIMENTAL_SETUP: number of larvae (of 36); 3 μM from 2 hpf, scored at 72 hpf
- Method: The screen was performed in zebrafish embryos using the National Cancer Institute's Developmental Therapeutics Program (NCI/DTP) Diversity Set I. This library contains 1990 compounds selected by pharmacophore modeling to represent the more than 140,000 small molecules maintained in the NCI/DTP Open Repository. […] Individual wells were then scored for a dominant phenotype, representative of at least four of the five embryos. […]
MEASUREMENT_TYPE: Edemic 2 (E2)
Lab note: record the figure alone, no unit after it.

Worked set:
O=C(O)CCCSc1ccccc1 [UPHD-00020, 4-(phenylthio)butanoic acid (PTBA)]    17
COC(=O)CCCSc1ccc(Cl)cc1 [UPHD-00021]    6
O=C(CCCCCN1C(=O)c2cccc3cccc(c23)C1=O)NO [Scriptaid, reference compound]    0

What the record says about COc1ccc(SCCCC(=O)NO)cc1 [VNK-I-289] : Edemic 2 (E2) is 0

The reported Edemic 2 (E2) of the compound O=C(CCCSc1ccc(Br)cc1)NO [VNK-I-292] was 12

Recorded Edemic 2 (E2) (compound Nc1ccccc1NC(=O)c1ccc(CNC(=O)OCc2cccnc2)cc1 [MS-275, reference compound] ): 0

Notebook: O=C(CCCCCCC(=O)Nc1ccc([C@H]2O[C@@H](CSc3nc(-c4ccccc4)c(-c4ccccc4)o3)C[C@@H](c3ccc(CO)cc3)O2)cc1)NO [tubacin, reference compound] , Edemic 2 (E2) read as 0

Lab note: O=C(O)CCCc1ccccc1 [PBA, 4-phenylbutanoic acid, reference compound] gave Edemic 2 (E2) of 0

What the record says about COC(=O)CCCSc1ccc(C)cc1 [UPHD-00026] : Edemic 2 (E2) is 2

Measured Edemic 2 (E2), COC(=O)CCCSc1ccccc1 [UPHD-00025] : 2

Given item Cc1ccc(SCCCC(=O)NO)cc1 [UPHD-00028] , the value recorded as its Edemic 2 (E2) is 0

Edemic 2 (E2) measured on CCC(C)OC(=O)CCCSc1ccccc1 (stereo not drawn) [VNK-I-154] = 12

# Edemic 2 (E2) of O=C(CCCCCCC(=O)Nc1ccccc1)NO [SAHA, reference compound] = 0

Briefly, Edemic 2 (E2) measured for CCC(=O)CCCCC[C@@H]1NC(=O)[C@H]2CCCCN2C(=O)[C@H]([C@@H](C)CC)NC(=O)[C@H](Cc2cn(OC)c3ccccc23)NC1=O [apicidin, reference compound] : 0

Entry CCCC(CCC)C(=O)O [valproic acid, reference compound] ; Edemic 2 (E2) = 0

Edemic 2 (E2) for CCCOC(=O)CCCSc1ccccc1 [UPHD-00024, propyl 4-(phenylsulfanyl)butanoate] is 8

Note to self: Edemic 2 (E2) recorded for O=C(O)CCCNc1ccccc1 [VNK-I-300, 4-(phenylamino)butanoic acid] was 0

Lab note: O=C(O)CCCS(=O)(=O)c1ccccc1 [PSOBA, 4-(phenylsulfonyl)butanoic acid, reference compound] gave Edemic 2 (E2) of 0
